Molecular target: Cytochrome P450 3A4 (Homo sapiens) (UniProt P08684)
Sequence (P08684 whole entry, looked up): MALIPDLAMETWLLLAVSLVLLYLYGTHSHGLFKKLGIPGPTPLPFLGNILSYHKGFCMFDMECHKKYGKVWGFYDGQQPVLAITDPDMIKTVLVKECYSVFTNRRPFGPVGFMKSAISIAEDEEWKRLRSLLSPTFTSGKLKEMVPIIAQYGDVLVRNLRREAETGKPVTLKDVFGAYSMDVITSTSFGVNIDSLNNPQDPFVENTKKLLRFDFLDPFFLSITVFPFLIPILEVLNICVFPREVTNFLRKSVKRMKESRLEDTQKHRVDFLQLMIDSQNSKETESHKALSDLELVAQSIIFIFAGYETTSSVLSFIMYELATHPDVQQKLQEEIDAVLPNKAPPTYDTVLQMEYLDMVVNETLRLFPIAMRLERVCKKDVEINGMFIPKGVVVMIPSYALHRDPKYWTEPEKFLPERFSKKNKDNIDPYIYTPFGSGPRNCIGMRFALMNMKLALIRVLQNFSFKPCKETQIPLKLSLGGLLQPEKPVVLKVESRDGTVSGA
Experiment: qHTS Assay for Activators of Cytochrome P450 3A4 (AID 885); note: nearly all actives have a fitted effect of over 65% in size
Conditions: recombinant CYP3A4, Luciferin-PPXE luminescence, 60 min; series mostly up to 57.1 µM
The source made the active and inactive calls. Calls come from the whole dose curve; as a rule, active = well fitted activation curve with a large enough effect; inconclusive = small, poorly fitted or top-dose-only effect; inactive = no such curve, though single readings can be large or run the other way.
Lab note: assign the record to one of True for active, False for inactive

Answered examples (9):
| molecule | class-assignment |
| --- | --- |
| CC(C)c1c(CN(C)[C@@H](C)Cc2ccccc2)n(C)n(-c2ccccc2)c1=O | False |
| O=C1C=C2C=CC3C[C@@]2(O1)C1CCCCN31 (stereo not given in full) | False |
| CC[C@@]1(O)CC(O)c2c(cc3c(c2O)C(=O)c2c(O)ccc(O)c2C3=O)C1C(=O)OC (stereo not given in full) | False |
| CC1(C)C(O)CC(O)[C@]2(C)C1CC(O)[C@]1(C)C2CC[C@@]2(C)C(c3ccoc3)OC(=O)C3O[C@]312 (stereo not given in full) | False |
| COc1cc(C=C(C#N)C#N)cc(O)c1O | False |
| CC1C(=O)OC2C1CC[C@@]1(C)C=CC(=O)[C@@]3(C)O[C@@]213 (stereo not given in full) | False |
| COc1cc2c(c(OC)c1OC)-c1ccc(O)c(=O)cc1[C@H](N)CC2 | False |
| C[C@@]12CCC(O)C[C@H]1CCC1C2CC[C@]2(C)C(=O)CCC12 (stereo not given in full) | False |
| CC(=O)O[C@H]1CC[C@@]2(C)C(=CC[C@@H]3[C@H]2CC[C@]2(C)C(=O)CC[C@H]32)C1 | True |

Next molecule, please.
query: Which outcome was assigned to `S=C(S)N1CCCC1` in this test?
result: False
